# Test system: E. coli 11775
# PROTOCOL DESCRIPTION: Minimal inhibitory concentration (liquid culture)
# MEASUREMENT CONTEXT: inoculum 1200 CFU/ml; a-b = highest concentration with growth - lowest without growth
Residues, ends and D or L forms follow the SMILES beside them.
OBSERVABLE: minimal inhibitory concentration (MIC)

Recorded minimal inhibitory concentration (MIC), per entry:
MOLECULE | OBSERVED RESULT
CC[C@H](C)[C@H](NC(=O)[C@@H]1CCCN1C(=O)[C@H](C)NC(=O)[C@@H]1CCCN1C(=O)[C@H](CCCNC(=N)N)NC(=O)[C@@H]1CCCN1C(=O)[C@H](CCCCN)NC(=O)[C@@H](N)CC(N)=O)C(=O)N[C@@H](CCCCN)C(=O)N1CCC[C@H]1C(=O)N[C@@H](CCCNC(=N)N)C(=O)N1CCC[C@H]1C(=O)N1CCC[C@H]1C(=O)N[C@@H](Cc1c[nH]cn1)C(=O)N1CCC[C@H]1C(=O)N[C@@H](CCCNC(=N)N)C(=O)N[C@@H](CC(C)C)C(=O)O [Cd 2-] (H-NKPRPAPIKPRPPHPRL-OH) | 0.5 to 1 µg/mL
CC(C)C[C@H](NC(=O)[C@H](CCCNC(=N)N)NC(=O)[C@@H]1CCCN1C(=O)[C@H](Cc1c[nH]cn1)NC(=O)[C@@H]1CCCN1C(=O)[C@@H]1CCCN1C(=O)[C@H](CCCNC(=N)N)NC(=O)[C@@H]1CCCN1C(=O)[C@@H]1CCCN1C(=O)[C@@H](NC(=O)[C@H](CCC(N)=O)NC(=O)[C@H](CCC(N)=O)NC(=O)[C@@H]1CCCN1C(=O)[C@H](CCCNC(=N)N)NC(=O)[C@@H]1CCCN1C(=O)[C@H](CCCCN)NC(=O)CN)C(C)C)C(=O)O [Ho +, G K P R P Q Q V P P R P P H P R L] (H-GKPRPQQVPPRPPHPRL-OH) | 0.1 to 0.5 µg/mL
CC[C@H](C)[C@H](NC(=O)[C@H](Cc1ccc(O)cc1)NC(=O)[C@@H](NC(=O)[C@@H]1CCCN1C(=O)[C@H](CCCNC(=N)N)NC(=O)[C@@H](N)CC(N)=O)C(C)C)C(=O)N1CCC[C@H]1C(=O)N1CCC[C@H]1C(=O)N1CCC[C@H]1C(=O)N[C@@H](CCCNC(=N)N)C(=O)N1CCC[C@H]1C(=O)N1CCC[C@H]1C(=O)N[C@@H](Cc1c[nH]cn1)C(=O)N1CCC[C@H]1C(=O)N[C@@H](CCCNC(=N)N)C(=O)N[C@@H](CC(C)C)C(=O)O [Bb-A] (H-NRPVYIPPPRPPHPRL-OH) | 0.1 to 0.5 µg/mL
CC[C@H](C)[C@H](NC(=O)[C@H](Cc1ccc(O)cc1)NC(=O)[C@@H](NC(=O)[C@@H]1CCCN1C(=O)[C@H](CCCNC(=N)N)NC(=O)[C@H](CC(N)=O)NC(=O)[C@H](C)N)C(C)C)C(=O)N1CCC[C@H]1C(=O)N1CCC[C@H]1C(=O)N1CCC[C@H]1C(=O)N[C@@H](CCCNC(=N)N)C(=O)N1CCC[C@H]1C(=O)N1CCC[C@H]1C(=O)N[C@@H](Cc1c[nH]cn1)C(=O)N1CCC[C@H]1C(=O)N[C@@H](CCCNC(=N)N)C(=O)N[C@@H](CC(C)C)C(=O)O [Bb+A] (H-ANRPVYIPPPRPPHPRL-OH) | 0.05 to 0.1 µg/mL
CC(C)C[C@H](NC(=O)[C@H](CCCNC(=N)N)NC(=O)[C@@H]1CCCN1C(=O)[C@H](Cc1c[nH]cn1)NC(=O)[C@@H]1CCCN1C(=O)[C@@H]1CCCN1C(=O)[C@H](CCCNC(=N)N)NC(=O)[C@@H]1CCCN1C(=O)[C@@H]1CCCN1C(=O)[C@@H](NC(=O)[C@H](CCC(N)=O)NC(=O)[C@H](CCC(N)=O)NC(=O)[C@@H]1CCCN1C(=O)[C@@H](N)CCCNC(=N)N)C(C)C)C(=O)O [Ho -] (H-RPQQVPPRPPHPRL-OH) | 0.5 to 1 µg/mL
CC(C)C[C@H](NC(=O)[C@H](CCCNC(=N)N)NC(=O)[C@@H]1CCCN1C(=O)[C@H](Cc1c[nH]cn1)NC(=O)[C@@H]1CCCN1C(=O)[C@@H]1CCCN1C(=O)[C@H](CCCNC(=N)N)NC(=O)[C@@H]1CCCN1C(=O)[C@H](C)NC(=O)[C@@H]1CCCN1C(=O)[C@@H](NC(=O)[C@H](Cc1ccc(O)cc1)NC(=O)[C@@H](NC(=O)[C@@H]1CCCN1C(=O)[C@H](CCCNC(=N)N)NC(=O)[C@@H](N)CC(N)=O)[C@@H](C)O)C(C)C)C(=O)O [Ck A] (H-NRPTYVPAPRPPHPRL-OH) | 0.1 to 0.5 µg/mL

List reported minimal inhibitory concentration (MIC) for each of these molecules:
1. CC(C)C[C@H](NC(=O)[C@H](CCCNC(=N)N)NC(=O)[C@@H]1CCCN1C(=O)[C@H](Cc1c[nH]cn1)NC(=O)[C@@H]1CCCN1C(=O)[C@@H]1CCCN1C(=O)[C@H](CCCNC(=N)N)NC(=O)[C@@H]1CCCN1C(=O)[C@@H]1CCCN1C(=O)[C@@H](NC(=O)[C@H](CCC(N)=O)NC(=O)[C@H](CCC(N)=O)NC(=O)[C@@H]1CCCN1C(=O)[C@H](CCCNC(=N)N)NC(=O)[C@@H]1CCCN1C(=O)[C@H](CCCCN)NC(=O)[C@H](CC(N)=O)NC(=O)[C@@H](N)CO)C(C)C)C(=O)O [Yj +S] (H-SNKPRPQQVPPRPPHPRL-OH)
2. CC[C@H](C)[C@H](NC(=O)[C@@H]1CCCN1C(=O)[C@H](C)NC(=O)[C@@H]1CCCN1C(=O)[C@H](CCCNC(=N)N)NC(=O)[C@@H]1CCCN1C(=O)[C@H](CCCNC(=N)N)NC(=O)[C@@H](N)CC(N)=O)C(=O)N[C@@H](CCC(N)=O)C(=O)N1CCC[C@H]1C(=O)N[C@@H](CCCNC(=N)N)C(=O)N1CCC[C@H]1C(=O)N1CCC[C@H]1C(=O)N[C@@H](Cc1c[nH]cn1)C(=O)N1CCC[C@H]1C(=O)N[C@@H](CCCNC(=N)N)C(=O)N[C@@H](CC(C)C)C(=O)O [Cd 1-] (H-NRPRPAPIQPRPPHPRL-OH)

Result block:
["0.1 to 0.5 µg/mL", "0.5 to 1 µg/mL"]

----------
# Test system: M. morganii
# PROTOCOL DESCRIPTION: Minimal inhibitory concentration (liquid culture)
# MEASUREMENT CONTEXT: inoculum 400 CFU/ml; a-b = highest concentration with growth - lowest without growth
Residues, ends and D or L forms follow the SMILES beside them.
OBSERVABLE: minimal inhibitory concentration (MIC)

List reported minimal inhibitory concentration (MIC) for each of these molecules:
1. CC[C@H](C)[C@H](NC(=O)[C@@H]1CCCN1C(=O)[C@H](C)NC(=O)[C@@H]1CCCN1C(=O)[C@H](CCCNC(=N)N)NC(=O)[C@@H]1CCCN1C(=O)[C@H](CCCCN)NC(=O)[C@H](CO)NC(=O)[C@@H]1CCCN1C(=O)[C@H](CCCCN)NC(=O)CN)C(=O)N[C@@H](CCCCN)C(=O)N1CCC[C@H]1C(=O)N[C@@H](CCCNC(=N)N)C(=O)N1CCC[C@H]1C(=O)N1CCC[C@H]1C(=O)N[C@@H](Cc1c[nH]cn1)C(=O)N1CCC[C@H]1C(=O)N[C@@H](CCCNC(=N)N)C(=O)N[C@@H](CC(C)C)C(=O)O [Cd 3+] (H-GKPSKPRPAPIKPRPPHPRL-OH)
2. CC[C@H](C)[C@H](NC(=O)[C@H](Cc1ccc(O)cc1)NC(=O)[C@@H](NC(=O)[C@@H]1CCCN1C(=O)[C@H](CCCNC(=N)N)NC(=O)[C@@H](N)CC(N)=O)C(C)C)C(=O)N1CCC[C@H]1C(=O)N1CCC[C@H]1C(=O)N1CCC[C@H]1C(=O)N[C@@H](CCCNC(=N)N)C(=O)N1CCC[C@H]1C(=O)N1CCC[C@H]1C(=O)N[C@@H](Cc1c[nH]cn1)C(=O)N1CCC[C@H]1C(=O)N[C@@H](CCCNC(=N)N)C(=O)N[C@@H](CC(C)C)C(=O)O [Bb-A] (H-NRPVYIPPPRPPHPRL-OH)

Result block:
1. 1 to 5 µg/mL
2. > 40 µg/mL

----------
# Test system: Haemophilus influenzae
# PROTOCOL DESCRIPTION: Inhibition zone assay (agar plate)
# Format: cell-based
# MEASUREMENT CONTEXT: 50 nanomoles/well, 3 mm wells
Residues, ends and D or L forms follow the SMILES beside them.
OBSERVABLE: inhibition zone diameter (number of plus signs)

COMPOUND | OBSERVED RESULT
CC[C@H](C)[C@H](NC(=O)[C@H](Cc1ccc(O)cc1)NC(=O)[C@@H](NC(=O)[C@@H]1CCCN1C(=O)[C@H](CCCNC(=N)N)NC(=O)[C@H](CC(N)=O)NC(=O)[C@H](C)N)C(C)C)C(=O)N1CCC[C@H]1C(=O)N1CCC[C@H]1C(=O)N1CCC[C@H]1C(=O)N[C@@H](CCCNC(=N)N)C(=O)N1CCC[C@H]1C(=O)N1CCC[C@H]1C(=O)N[C@@H](Cc1c[nH]cn1)C(=O)N1CCC[C@H]1C(=O)N[C@@H](CCCNC(=N)N)C(=O)N[C@@H](CC(C)C)C(=O)O [Bb+A] (H-ANRPVYIPPPRPPHPRL-OH) | +++ ((+++) 10-14 mm)
CC[C@H](C)[C@H](NC(=O)[C@@H]1CCCN1C(=O)[C@H](C)NC(=O)[C@@H]1CCCN1C(=O)[C@H](CCCNC(=N)N)NC(=O)[C@@H]1CCCN1C(=O)[C@H](CCCCN)NC(=O)[C@@H](N)CO)C(=O)N[C@@H](CCCCN)C(=O)N1CCC[C@H]1C(=O)N[C@@H](CCCNC(=N)N)C(=O)N1CCC[C@H]1C(=O)N1CCC[C@H]1C(=O)N[C@@H](Cc1c[nH]cn1)C(=O)N1CCC[C@H]1C(=O)N[C@@H](CCCNC(=N)N)C(=O)N[C@@H](CC(C)C)C(=O)O [Cd 3-] (H-SKPRPAPIKPRPPHPRL-OH) | +++ ((+++) 10-14 mm)
